Provenance of the data: PubChem BioAssay (NCI)

- System: HOP-92 NSCLC
- protocol: NCI tumour cell line growth inhibition, 48 h
measureName: TGI

Simply: COc1cccc2nc3cc(C)c(C)cc3nc12 , HOP-92 NSCLC, TGI = > 100 µM

HOP-92 NSCLC TGI of COc1cc(/C=C/C(=O)c2sc(NNC(C)=O)nc2C)ccc1O is > 100 µM

Query CS(=O)(=O)Nc1ccc(N=Cc2c(O)[nH]c3ccccc23)cc1 on HOP-92 NSCLC; TGI returned: > 25 µM

Param item: CC(C)C[C@H](NC(=O)[C@@H](O)[C@H](N)Cc1ccc([N+](=O)[O-])cc1)C(=O)O ; param system: HOP-92 NSCLC; output TGI: > 25 µM

Given the molecule Cc1ccc2c(c1)C(=O)c1c-2n(CCCBr)c(=O)c2cc([N+](=O)[O-])ccc12 and test system HOP-92 NSCLC, the measured TGI is > 100 µM

N.N.NCCCCCCN.O=C([O-])CC(=O)[O-].O=C([O-])CC(=O)[O-].[Pt+4].[Pt+4] tested on HOP-92 NSCLC gave TGI: > 100 µM

Tested system HOP-92 NSCLC; TGI recorded for Cc1cn2c(/C=N/Nc3ccccn3)c(-c3ccc(Cl)c([N+](=O)[O-])c3)nc2s1 was > 50 µM

Record COC(=O)C1CCC(=O)N1C(c1ccccc1)c1cc(OC)c(OC)c(OC)c1 (stereo not given) has HOP-92 NSCLC TGI equal to > 100 µM

Entry O=C1c2ccccc2CC1C1(O)C(=O)Nc2ccccc21 (stereo not given) ; assay system HOP-92 NSCLC; TGI recorded at > 100 µM

Value (TGI, HOP-92 NSCLC) for record O=c1[nH]c(-c2ccccc2)nc2c1sc1nc3ccccc3n12 = > 100 µM

# value of TGI, HOP-92 NSCLC, item O=C(Cc1ccccc1)NCCCN(CCCCN(CCCNC(=O)Cc1ccccc1)C(=O)OCc1ccccc1)C(=O)OCc1ccccc1 = > 100 µM

The observed TGI for COc1cc(C2C3=C(COC3=O)Nc3cc4c(cc32)CCC4)cc2c1OCO2 (stereo not given) when tested with HOP-92 NSCLC stands at 40.5 µM

The value of TGI recorded for C=CCNC(=O)NCCCC(NC(C)=O)C(=O)NCc1ccccc1 (stereo not given) when tested on HOP-92 NSCLC reads > 100 µM

Entry COc1ccc(/C=C2\CCC(CN(C)C)C2=O)cc1OC (stereo not given) , tested on HOP-92 NSCLC, has a reported TGI of 21 µM

# O=C(COc1cccc(/C=C2\COc3ccc(Cl)cc3C2=O)c1)c1ccc(Cl)cc1 with HOP-92 NSCLC: TGI is 13.4 µM

###

- Test system: SNB-19 CNS
- protocol: NCI tumour cell line growth inhibition, 48 h
Provide the recorded GI50 for the entries that follow.

GI50 on SNB-19 CNS for OCC1OC(n2cnc3c(=S)nc[nH]c32)C(O)C1O (stereo not drawn) is > 65.2 µM

# lookup: Nc1n[nH]c2cccc(C#Cc3cccc(C(=O)Nc4cc(CN5CCOCC5)cc(C(F)(F)F)c4)c3)c12 on SNB-19 CNS, GI50 = 5.23 µM

# value of GI50, SNB-19 CNS, item CCN(CC)c1ccc(C(=N)c2ccc(N(C)C)cc2)cc1 = 2.19 µM

Form field GI50 for item CCCc1cc(=O)n2c(C(=O)Nc3ccccc3OC)c(C(=O)Nc3ccc(F)cc3)sc2n1 on SNB-19 CNS: 23.1 µM

Entry CC(=O)O[C@H]1CC[C@@]2(C)[C@@H](CC[C@@H]3[C@@H]2CC[C@]2(C)C=C(C=O)C[C@@H]32)C1 : GI50 on SNB-19 CNS = 14.5 µM

Entry CCOC(=O)c1nc(Nc2ccc(Cl)cc2)c2ccccc2n1 : GI50 on SNB-19 CNS = 13.5 µM

# GI50 measured on SNB-19 CNS for item Nc1c(C(=O)Nc2ccccc2)sc2nc3c(cc12)CN(Cc1ccccc1)CC3 = 18.3 µM

Note to self: GI50 of N=C(N)c1ccc(COc2ccccc2OCc2ccc(C(=N)N)cc2)cc1 with SNB-19 CNS was 41.4 µM

###

- System: RXF 393 renal
- protocol: NCI tumour cell line growth inhibition, 48 h
measureName: TGI

According to the records, this compound O=c1oc(-c2ccccc2)c(-c2ccccc2)n1-c1ccc(Br)cc1 displays TGI of > 100 µM

Briefly, TGI measured for COc1cccc2nc3cc(C)c(C)cc3nc12 : > 100 µM

The recorded TGI for entry COC(=O)[C@@]12C(=O)C(C)C(=O)[C@]1(C)C(C)=C[C@H]1[C@]3(C=O)CC[C@H](OC(C)=O)C(C)(C)[C@H]3CC[C@@]12C (some centres not stated) equals > 100 µM

Briefly, TGI measured for S=C(Nc1cc(Cl)c(Cl)cc1Cl)SCc1ccccc1 : > 100 µM

So, OCC1OC(n2cnc3c(=S)nc[nH]c32)C(O)C1O (configuration not stated) ? Its TGI was > 2500 µM

So, O=C(O)CC1OCC=C2CN3CCC45C6=CC(=O)C(=O)C([N+](=O)[O-])=C6NC4C1C2CC35 (configuration not stated) ? Its TGI was > 100 µM

TGI recorded for this compound, c1ccc2c(c1)nc1n2C2CCC(C2)N1 (configuration not stated) , is > 10 µM

For this compound ( CS(=O)(=O)Nc1ccc(N=Cc2c(O)[nH]c3ccccc23)cc1 ), measured TGI is > 25 µM

Reported TGI ( CC(C)C1COC(c2cccc(C3=N[C@@H](C(C)C)CO3)n2)=N1 (some centres not stated) ) = > 100 µM

For record NC(CCC(=O)O)(CCC(=O)O)CCC(=O)O the listed TGI is > 100 µM

Lookup result for COC(=O)C1CCC(=O)N1C(c1ccccc1)c1cc(OC)c(OC)c(OC)c1 (configuration not stated) ; measured TGI: > 100 µM

Per the record, CCCOc1nc(SCCC)nc2c1cnn2-c1ccccc1 has TGI of > 100 µM

###

- Tested on: SF-268 CNS
- protocol: NCI tumour cell line growth inhibition, 48 h
Kindly supply the reported GI50 values for the records listed here.

The molecule COc1cc(C(=O)/C=C/c2cccnc2Nc2ccccc2)cc(OC)c1OC showed GI50 equal to 1.55 µM

# molecule CCCOC(=O)CCn1c(SC)nc2[nH]cc(-c3ccccc3)c2c1=O ; its GI50 = 14.5 µM

So, COCCNc1cc(NC(=O)N2CCCc3cc(CN4CCN(C)CC4=O)c(C=O)nc32)ncc1C#N ? Its GI50 was > 50 µM

Lookup result for FC(F)(F)c1ccc(-c2cnc(Cl)nc2NCc2cc(C(F)(F)F)cc(C(F)(F)F)c2)cc1 ; measured GI50: 3.86 µM

Measured GI50 of OCC1OC(n2cnc3c(=S)nc[nH]c32)C(O)C1O (configuration not stated) : > 23.9 µM

GI50 in this record for O=C(CN(/C=C/C(=O)C(F)(F)F)c1ccccc1)c1ccc(Cl)c(Cl)c1 : 18.4 µM

// GI50 lookup, molecule = O=C(N/N=C/c1cc([N+](=O)[O-])ccc1O)c1cccc2ccccc12 , result: 4.12 µM

###

- Test system: HOP-62 NSCLC
- protocol: NCI tumour cell line growth inhibition, 48 h; in the data active = GI50 below about 0.43 µM; inactive = the rest
// classify into 1 (active), 0 (inactive)

Query :: Any idea what this test logged for CN(C)CC1CCCCCC(CN(C)C)C1=O (stereo unspecified) ?
Result :: 0

Query :: # fetch the recorded call for Cn1ccnc1C(=O)/C=C/c1ccc(CC(=O)Nc2ccc(C(F)(F)F)cc2)cc1 here
Result :: 0

Query :: Assay outcome for OCC1OC(n2cnc3c(=S)nc[nH]c32)C(O)C1O (stereo unspecified) : what was it?
Result :: 0

Query :: For C[C@]12CCc3sc(Nc4ccc(O)cc4)nc3C1=CC[C@@H]1[C@@H]2CC[C@]2(C)C(=O)CC[C@@H]12 , what call appears in the results of this test?
Result :: 0

Query :: Can you look up the reported call for CCOc1ccccc1/C=N\N=C(\N)N/N=C/c1ccccc1OCC for me?
Result :: 0

Query :: State the result this test recorded for CCNCCNc1cc(C2CCCCC2)c(C#N)c2nc3ccccc3n12 .
Result :: 0

Query :: Recorded call for CN(C)c1ccc(C(=C2C=CC(=[N+](C)C)C=C2)c2ccc(N(C)C)cc2)cc1 ?
Result :: 1

Query :: Status in this test for Cc1cn2c(/C=N/Nc3ccccn3)c(-c3ccc(Cl)c([N+](=O)[O-])c3)nc2s1 ?
Result :: 0

Query :: Call for entry COc1ccc2c(c1)C(C)Cc1c(Cl)nc(C)nc1N2C (stereo unspecified) :
Result :: 0

Query :: Per the assay record, what outcome was assigned to COC(=O)C1=C(OC(=O)c2ccc(Cl)cc2)C(C(=O)OC)[C@@]2(O)[C@@H](C(=O)OC)C(c3ccccc3Cl)C[C@@H]1[C@@H]2C(=O)OC (stereo partly specified) ?
Result :: 0

Query :: For this compound, state the assay outcome: C=C1CCC2C3(C)COC(c4ccccc4Br)OC3CCC2(C)C1C/C=C1/C(=O)OCC1OC(C)=O (stereo unspecified)
Result :: 0
